Test system: MCF-7 breast adenocarcinoma cells
assay: Cancer cell proliferation assay, single agent (cell viability)
Format: cell-based
applied.conditions: Homo sapiens, MCF7, Table 4; Rb positive; treatment 144 Hr with medium change at 72 Hr; Cell Titer-Glo or resazurin
Decision: IC50 beneath 700 nM gives YES; IC50 meeting or exceeding 700 nM gives NO.

hey, is IC50 for CS(=O)(=O)N1CCC(Nc2ncc3cc(C#N)c(=O)n(C4CCC4)c3n2)CC1 [Compound No. 368] lower than 700 nM or not? YES

hey, is IC50 for CS(=O)(=O)N1CCC(Nc2ncc3cc(C4CC4)c(=O)n(C4CCCC4)c3n2)CC1 [Compound No. 379] lower than 700 nM or not? NO

hey, is IC50 for CS(=O)(=O)N1CCC(Nc2ncc3cc(C#N)c(=O)n(C4CC5CC5C4)c3n2)CC1 (centres unmarked) [Compound No. 341] lower than 700 nM or not? NO

hey, is IC50 for CCCCCc1ccc(S(=O)(=O)N2CCC(Nc3ncc4cc(C#N)c(=O)n(C5CCCC5)c4n3)CC2)cc1 [Compound No. 381] lower than 700 nM or not? NO

hey, is IC50 for CN(C)CCn1cc(Nc2ncc3cc(C#N)c(=O)n(C4CCCC4)c3n2)cn1 [Compound No. 105] lower than 700 nM or not? YES

hey, is IC50 for N#Cc1cc2cnc(Nc3ccc4c(c3)CCNC4)nc2n(CC2CC2)c1=O [Compound No. 85] lower than 700 nM or not? NO

hey, is IC50 for N#Cc1cc2cnc(Nc3ccc(N4CCN5CCCC5C4)c(F)c3)nc2n(C2CCCC2)c1=O (centres unmarked) [Compound No. 55] lower than 700 nM or not? YES

hey, is IC50 for CN(C)CC1Cc2ccc(Nc3ncc4cc(C#N)c(=O)n(C5CCCC5)c4n3)cc2C(=O)N1 (centres unmarked) [Compound No. 22] lower than 700 nM or not? NO

###

system.tested: CDK1 (cyclin B) (Homo sapiens, UniProt P06493)
Construct: purchased Invitrogen Life Technologies (assay service)
Sequence (P06493 whole entry): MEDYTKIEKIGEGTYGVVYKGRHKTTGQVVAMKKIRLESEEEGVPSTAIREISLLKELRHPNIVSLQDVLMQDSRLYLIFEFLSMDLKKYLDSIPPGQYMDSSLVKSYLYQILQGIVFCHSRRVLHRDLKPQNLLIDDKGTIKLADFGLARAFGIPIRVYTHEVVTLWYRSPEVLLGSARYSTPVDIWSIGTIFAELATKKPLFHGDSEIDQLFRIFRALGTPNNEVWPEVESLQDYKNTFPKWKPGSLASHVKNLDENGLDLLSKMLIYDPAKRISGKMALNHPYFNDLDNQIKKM
Sequence (P14635 whole entry partner): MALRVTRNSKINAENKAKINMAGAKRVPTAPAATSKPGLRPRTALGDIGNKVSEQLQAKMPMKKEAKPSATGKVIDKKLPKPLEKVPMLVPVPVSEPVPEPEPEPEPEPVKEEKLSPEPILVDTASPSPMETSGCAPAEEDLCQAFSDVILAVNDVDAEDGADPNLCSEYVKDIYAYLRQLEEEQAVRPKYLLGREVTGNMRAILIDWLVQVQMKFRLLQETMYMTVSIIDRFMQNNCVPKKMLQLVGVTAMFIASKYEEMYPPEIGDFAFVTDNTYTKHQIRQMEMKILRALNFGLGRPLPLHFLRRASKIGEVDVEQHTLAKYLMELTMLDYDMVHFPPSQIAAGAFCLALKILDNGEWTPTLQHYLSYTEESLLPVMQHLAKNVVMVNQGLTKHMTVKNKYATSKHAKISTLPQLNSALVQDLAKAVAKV
assay: Z'-LYTE kinase assay
Assay type: biochemical
Task for the reader: assign each of the following molecules its reported pIC50.
Recall that pIC50 is obtained by taking minus log10 of the concentration measured in molar.

Please tell me: pIC50 of CS(=O)(=O)N1CCC(Nc2ncc3cc(C#N)c(=O)n([C@H]4CCC(F)(F)C4)c3n2)CC1 , system CDK1 (cyclin B) (Homo sapiens, UniProt P06493)? 6.23

Please tell me: pIC50 of N#Cc1cc2cnc(NC3CCN(S(=O)(=O)CCCCCCO)CC3)nc2n(C2CCCC2)c1=O , system CDK1 (cyclin B) (Homo sapiens, UniProt P06493)? 6.49

Please tell me: pIC50 of CCC(CC)n1c(=O)c(C#N)cc2cnc(NC3CCN(S(C)(=O)=O)CC3)nc21 , system CDK1 (cyclin B) (Homo sapiens, UniProt P06493)? 6.84

Please tell me: pIC50 of CS(=O)(=O)N1CCC(Nc2ncc3cc(C#N)c(=O)n(-c4c(F)cccc4F)c3n2)CC1 , system CDK1 (cyclin B) (Homo sapiens, UniProt P06493)? 5.84

Please tell me: pIC50 of CS(=O)(=O)N1CCC(Nc2ncc3cc(C#N)c(=O)n(C4CCCCC4)c3n2)CC1 , system CDK1 (cyclin B) (Homo sapiens, UniProt P06493)? 5.53

Please tell me: pIC50 of N#Cc1cc2cnc(NC3CCN(S(=O)(=O)C4CC4)CC3)nc2n(C2CCCC2)c1=O , system CDK1 (cyclin B) (Homo sapiens, UniProt P06493)? 7.26

Please tell me: pIC50 of Cn1ccc(S(=O)(=O)N2CCC(Nc3ncc4cc(C(F)F)c(=O)n([C@@H]5C[C@H]6CC[C@@H]5C6)c4n3)CC2)n1 , system CDK1 (cyclin B) (Homo sapiens, UniProt P06493)? 7.00

Please tell me: pIC50 of CS(=O)(=O)N1CCC(Nc2ncc3cc(C#N)c(=O)n([C@@H]4C[C@H]5CC[C@@H]4C5)c3n2)CC1 , system CDK1 (cyclin B) (Homo sapiens, UniProt P06493)? 6.93

Please tell me: pIC50 of CCS(=O)(=O)N1CCC(Nc2ncc3cc(C#N)c(=O)n(C4CCCC4)c3n2)CC1 , system CDK1 (cyclin B) (Homo sapiens, UniProt P06493)? 6.64

Please tell me: pIC50 of Cn1ccc(S(=O)(=O)N2CCC(Nc3ncc4cc(C#N)c(=O)n(C5CCCC5)c4n3)CC2)n1 , system CDK1 (cyclin B) (Homo sapiens, UniProt P06493)? 6.04

Please tell me: pIC50 of Cc1ccc(S(=O)(=O)N2CCC(Nc3ncc4cc(C#N)c(=O)n(C5CCCC5)c4n3)CC2)cc1 , system CDK1 (cyclin B) (Homo sapiens, UniProt P06493)? 6.22

Please tell me: pIC50 of CS(=O)(=O)N1CC[C@@H](Nc2ncc3cc(C#N)c(=O)n(C4CCCC4)c3n2)[C@H](F)C1 , system CDK1 (cyclin B) (Homo sapiens, UniProt P06493)? 5.89
